Test system: Sprague Dawley rats
Assay details: Capsaicin induced secondary mechanical hyperalgesia model
Format: in vivo
Reported conditions: po, 1 h, read-out: % inhibition @ 30 mg/kg p.o., 60 minutes before testing, secondary mechanical hyperalgesia 180 minutes after intraplantar capsaicin, rat
Measurement label: inhibition in vivo at 30 mg/kg (%)
Numbers only, in %.

{"columns": ["Molecule", "Measurement label", "Numeric value"],
 "data": [
  ["CC(C)C[C@H](NS(C)(=O)=O)C(=O)N[C@@H]1CC[C@H]2CN(Cc3cccc(C(F)(F)F)c3)C[C@H]21 [Example 170]", "inhibition in vivo at 30 mg/kg", 57],
  ["CC(C)(C)C[C@H](NCC1CC1)C(=O)N[C@H]1CC[C@@H]2CN(c3ccc(C(F)(F)F)cn3)C[C@@H]21 [Example 478]", "inhibition in vivo at 30 mg/kg", 57]
]}

stdin: inhibition in vivo at 30 mg/kg for CCC[C@H](NC(=O)OC(C)C)C(=O)N[C@H]1CC[C@@H]2CN(Cc3ccc(C(F)(F)F)cc3)C[C@@H]21 [Example 280] ?
stdout: 38
